The following compounds are shown together with reported IC50 values.
system-name: RORc ligand binding domain (Homo sapiens, UniProt P51449)
Sequence (P51449 269-508 limits assumed): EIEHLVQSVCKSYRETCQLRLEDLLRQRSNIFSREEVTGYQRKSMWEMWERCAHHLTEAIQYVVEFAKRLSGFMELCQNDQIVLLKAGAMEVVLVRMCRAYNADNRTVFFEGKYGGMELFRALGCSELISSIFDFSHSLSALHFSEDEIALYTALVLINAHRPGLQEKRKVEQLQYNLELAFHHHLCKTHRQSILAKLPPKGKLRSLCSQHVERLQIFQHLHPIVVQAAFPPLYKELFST
reported-property: IC50 (nM)

{"columns": ["compound", "numeric-readout"],
 "data": [
  ["CC1(C)C2CCC1(C1CCCN(C(=O)c3cnoc3)C1)c1nnc(-c3c(F)cccc3F)cc12 (stereo not shown) [Compound 160]", 200],
  ["CC(C)(O)CNC(=O)CO[C@@]12CC[C@@H](c3cc(-c4c(F)cccc4F)nnc31)C2(C)C [Compound 48]", 95.2],
  ["Cc1n[nH]c(C(=O)N2CCC[C@H]([C@@]34CC[C@@H](c5cc(-c6c(F)cccc6F)nnc53)C4(C)C)C2)n1 [Compound 129]", 83],
  ["CC1(C)[C@H]2CC[C@]1([C@H]1CCCN(c3ccncn3)C1)c1nnc(-c3c(F)cccc3F)cc12 [Compound 164]", 20],
  ["CC1(C)[C@H]2CC[C@]1([C@H]1CCCN(S(C)(=O)=O)C1)c1nnc(-c3c(F)cccc3F)cc12 [Compound 95]", 344],
  ["CC1(C)[C@H]2CC[C@]1(Oc1ccccc1)c1nnc(-c3c(F)cccc3F)cc12 [Compound 24]", 14.4],
  ["CC[C@@H](C[C@@]12CC[C@@H](c3cc(-c4c(F)cccc4F)nnc31)C2(C)C)C(N)=O [Compound 5]", 67.4],
  ["Cc1n[nH]c(N2CCO[C@@H]([C@@]34CC[C@@H](c5cc(-c6c(F)cccc6F)nnc53)C4(C)C)C2)n1 (single isomer, unassigned) [Compound 147]", 16],
  ["CC1(C)[C@H]2CC[C@]1([C@@H]1CN(Cc3ccccc3)CCO1)c1nnc(-c3c(F)cccc3F)cc12 [Compound 60]", 317],
  ["CC[C@@H](O[C@@]12CC[C@@H](c3cc(-c4c(F)cccc4F)nnc31)C2(C)C)C(=O)NC(CO)CO [Compound 53]", 116]
]}
